Assign TGI to each entry below.
tested on: MOLT-4 leukemia; experiment: NCI tumour cell line growth inhibition, 48 h

Take a look at these entries with their results.
compound	TGI
c1cc(-c2csc(-c3ccsc3)c2)cs1	> 100 µM
C=CCC1C(=O)C(C(=O)OC)N2CCc3c([nH]c4ccccc34)C12 (centres undefined)	> 100 µM
NC1=NC(c2ccc(Cl)cc2)N(c2ccc(S(=O)(=O)Nc3ncccn3)cc2)C(N)=N1 (centres undefined)	> 100 µM
CC(=O)Nc1ccc(-c2c3nc(c(-c4cc5ccccc5[n+](C)c4)c4ccc([nH]4)c(-c4ccc(NC(C)=O)cc4)c4nc(c(-c5cc6ccccc6[n+](C)c5)c5ccc2[nH]5)C=C4)C=C3)cc1	> 50 µM
C=C(C)[C@@H]1CC[C@]2(C)CC[C@]3(C)[C@H](CC[C@@H]4[C@@]5(C)CC[C@H](OC(=O)c6ccccc6)C(C)(C)[C@@H]5CC[C@]43C)[C@@H]12	> 100 µM
COC(=O)Nc1nc2ccc(Oc3ccc4nc(NC(=O)OC)[nH]c4c3)cc2[nH]1	> 32.8 µM
Cc1c(C(=O)CC(=O)C(=O)Nc2c(C(C)C)cccc2C(C)C)[n+](=O)c2ccccc2n1[O-]	8.2 µM
N#CCCN(CCC#N)C(=O)c1cccc(C(=O)N(CCC#N)CCC#N)c1	> 100 µM
Cc1csc(/C=N/NC(=O)c2nnn(-c3ccnc4c(C(F)(F)F)cccc34)c2C)c1	> 100 µM
C=C[C@@H](OCOCC[Si](C)(C)C)[C@@H](CC)OC(CCCOC(=O)C(C)(C)C)OC (some centres undefined)	> 100 µM

For each of the items listed, what is its TGI?
1. Nc1ccc(-c2ncc3cc(-c4cccc(-c5cc6cnc(-c7ccc(N)cc7)nc6c6ccccc56)c4)c4ccccc4c3n2)cc1
2. CC1C2=C(CC(C)(C)CC2=O)NC2=C1C(=O)CC(C)(C)C2
3. CSc1ccccc1P(c1ccccc1SC)c1ccccc1SC
4. CCOC(=O)c1cc(/C=C/C(C)=C/C(=O)OC)oc1-c1ccccc1
5. CO[C@H]1O[C@@H]2CO[C@@H](c3ccccc3)O[C@H]2[C@@H]2CC=CCC[C@]12O
6. O=S1(=O)NNC(=NCc2ccc(Cl)c(Cl)c2)c2ccccc21
7. C[C@]12CCC3c4ccc(O)cc4CC[C@H]3C1CC(=O)N(N)C2=O (some centres undefined)
8. O=C1CSC(/C(=C/c2ccccc2)c2nc3ccccc3[nH]2)=N1

**Result**
1. > 100 µM
2. > 100 µM
3. > 100 µM
4. > 100 µM
5. 73.3 µM
6. 98.8 µM
7. > 100 µM
8. > 100 µM

**Query** Report the value of TGI obtained on MOLT-4 leukemia for "COc1cc(/C=N/Nc2ncnc3c2cnn3C(C)C)ccc1O" .
**Result** > 20.7 µM
